meta.source: ChEMBL document CHEMBL3763130

System: HUVEC
ASSAY NAME: Antiangiogenic activity in HUVEC assessed as inhibition of VEGF induced cell proliferation after 3 days by WST-1 assay
Type: functional, cell-based
RUN PARAMETERS: Homo sapiens, 72 h
QUANTITY: pIC50
As a rule, pIC50 stands for the negative log10 of the concentration, concentration in M.

Given item CN1CCN(C2CCN(C(=O)Nc3cc(Oc4ccc(NC(=O)C5(C(=O)Nc6ccc(F)cc6)CC5)c(F)c4)ccn3)CC2)CC1 , the value recorded as its pIC50 is 7.08

====

Test system: HUVEC
ASSAY NAME: Antiangiogenic activity in HUVEC assessed as inhibition of bFGF induced cell proliferation after 3 days by WST-1 assay
Type: functional, cell-based
RUN PARAMETERS: Homo sapiens, 72 h
QUANTITY: IC50

Given item CN1CCN(C2CCN(C(=O)Nc3cc(Oc4ccc(NC(=O)C5(C(=O)Nc6ccc(F)cc6)CC5)c(F)c4)ccn3)CC2)CC1 , the value recorded as its IC50 is > 1000 nM
